# Tested on: U2OS
# PROTOCOL SUMMARY: Multiplex assay against U2OS
# Type: toxicity, cell-based
# CONDITION SUMMARY: human, 48 h, 10 µM, compound concentration 10 uM, replicate 2
Reported Population Tubulin-Different-Phenotype (%) values for a set of compounds
ASSAY READOUT: Population Tubulin-Different-Phenotype (%)

STRUCTURE SMILES	TESTED TARGET	QUANTITY UNIT	OBS VALUE
O=C(Cc1ccc(-c2ccc(OCCN3CCOCC3)cc2)cn1)NCc1ccccc1	U2OS	%	36
O=C1NC(=O)C(c2cnc3ccccn23)=C1c1cn2c3c(cc(F)cc13)CN(C(=O)N1CCCCC1)CC2	U2OS	%	89
CCN1CCN(Cc2ccc(Nc3ncc(F)c(-c4cc(F)c5nc(C)n(C(C)C)c5c4)n3)nc2)CC1.CS(=O)(=O)O	U2OS	%	95
O=C1N/C(=N/c2ccccc2F)S/C1=C\c1ccc(C(=O)O)cc1	U2OS	%	22
